# target.of.assay: Fuc(a1-2)Gal(b1-4)Glc
# test: glycan array binding signal (z-score within array); higher = stronger binding
# condition.info: glycan notation: IUPAC condensed, linker removed
Many of the other results were omitted from the sample, so the strongest signals are more common in it than they were.
assay.readout: glycan array binding signal (z-score)
Answer with a number only.

RobpsCRA (Robinia pseudoacacia) (protein) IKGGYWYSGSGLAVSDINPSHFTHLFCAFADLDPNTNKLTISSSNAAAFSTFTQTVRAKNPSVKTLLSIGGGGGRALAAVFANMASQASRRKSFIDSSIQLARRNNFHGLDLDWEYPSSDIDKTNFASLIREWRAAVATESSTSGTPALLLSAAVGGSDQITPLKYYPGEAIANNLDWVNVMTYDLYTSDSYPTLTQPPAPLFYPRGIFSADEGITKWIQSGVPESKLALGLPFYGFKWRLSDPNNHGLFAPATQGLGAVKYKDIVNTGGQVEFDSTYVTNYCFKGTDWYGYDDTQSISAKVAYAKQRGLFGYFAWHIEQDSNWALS :: 0.123
UEA-I (Ulex europaeus), P22972 (protein) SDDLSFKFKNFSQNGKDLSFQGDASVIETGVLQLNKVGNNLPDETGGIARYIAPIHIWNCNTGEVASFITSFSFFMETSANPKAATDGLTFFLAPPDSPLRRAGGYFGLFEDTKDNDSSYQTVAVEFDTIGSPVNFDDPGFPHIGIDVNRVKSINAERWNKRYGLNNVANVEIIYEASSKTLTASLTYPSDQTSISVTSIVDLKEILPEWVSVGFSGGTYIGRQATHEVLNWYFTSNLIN :: 5.21

Shifting focus to the binder that follows.
Asked: // query glycan array binding signal (z-score) value for entry Threefoil (Haloarcula marismortui) (protein) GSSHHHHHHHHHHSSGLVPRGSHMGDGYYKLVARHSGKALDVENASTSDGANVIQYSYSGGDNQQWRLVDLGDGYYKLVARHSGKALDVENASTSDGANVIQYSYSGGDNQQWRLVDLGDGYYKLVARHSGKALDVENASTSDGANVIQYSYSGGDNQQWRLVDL
Given back: -0.107
